assay: Half life in CD-1 mouse at 1 mg/kg, iv; assay type: ADME, organism-based; settings: in vivo
Would you mind telling me the reported half-life of each entry?
Give bare numbers, in h.

Some compounds with known half-life results, for comparison:
Cc1cnc(-c2ccc(Cl)c(F)c2)n1Cc1ccccc1OCCC[C@@H](C)CC(=O)O; 4.3
Cc1cnc(-c2ccc(OC(F)(F)F)cc2)n1Cc1ccccc1OCCC[C@@H](C)CC(=O)O; 2.7

Let's switch to this compound now.
Ask: Give recorded half-life. Cc1cnc(-c2ccc(Cl)cc2)n1Cc1ccccc1OCCC[C@@H](C)CC(=O)O
Reply: 1.4

###

assay: Half life in CD-1 mouse at 3 mg/kg, iv; format: ADME, organism-based; conditions: in vivo
Assign label 1 whenever half-life does not fall below 20 min; assign label 0 whenever it does.

Examples from the recorded data:
C/C(=C\COc1ccccc1Cc1c(C)ncn1-c1ccc(-c2ccco2)cc1)CCC(=O)O; label 1
C/C(=C\COc1ccccc1Cc1c(-c2ccc(-c3ccco3)cc2)noc1C)CCC(=O)O; label 0
C/C(=C\COc1ccccc1Cc1sc(C)nc1-c1ccc(-c2ccco2)cc1)CCC(=O)O; label 1
Cc1cnc(-c2ccc(-c3ccco3)cc2)n1Cc1ccccc1OCCC[C@@H](C)CC(=O)O; label 1

Ask: # bool: half-life of Cc1cnc(-c2ccc(-c3ccco3)cc2)n1Cc1ccccc1OCCCCCC(=O)O >= 20 min
Reply: label 0
